Assay: Plasma stability, mouse
Type: in vitro ADME
Settings: 37° C., >255.85 if remaining at 60 min greater than 85%
Protocol: • a. […] The final concentration of organic solvents was 0.5%. The assay was performed in duplicated. • b. All calculations were carried out using Microsoft Excel.

compound | half-life
COc1cccc2c1N(C[C@H]1CCCN1C)CC2 [(R)-I-46] | > 4.26 h
[2H]C([2H])([2H])N1CCC[C@@H]1C([2H])([2H])N1CCc2ccc(OC)cc21 [(R)-I-57] | > 4.26 h
COc1ccc2c(c1)N(C[C@H]1CCCN1C)CC2 [(R)-I-58] | > 4.26 h
CC(C)[N+](C)(CCOC(=O)C1c2ccccc2Oc2ccccc21)C(C)C [Propantheline, reference compound] | 0.619 h
[2H]C([2H])([2H])Oc1ccc2c(c1)N(C([2H])([2H])[C@H]1CCCN1C([2H])([2H])[2H])CC2 [(R)-I-28] | > 4.26 h

====

Assay: Plasma stability, rat
Assay type: in vitro ADME
Conditions: 37° C., 30 min, read-out: Remaining Percentage (%), 30 min
// remaining at 0.5 h lookup, one value per entry

compound | remaining at 0.5 h (%)
CC[C@H](C)C(=O)O[C@H]1C[C@@H](C)C=C2C=C[C@H](C)[C@H](CC[C@@H]3C[C@@H](O)CC(=O)O3)[C@H]21 [Lovastatin, reference compound] | 0.61
COc1cccc2c1N(C[C@H]1CCCN1C)CC2 [(R)-I-46] | 91.3
[2H]C([2H])([2H])Oc1ccc2c(c1)N(C([2H])([2H])[C@H]1CCCN1C([2H])([2H])[2H])CC2 [(R)-I-28] | 97.9
[2H]C([2H])([2H])N1CCC[C@@H]1C([2H])([2H])N1CCc2ccc(OC)cc21 [(R)-I-57] | 92.5
COc1ccc2c(c1)N(C[C@H]1CCCN1C)CC2 [(R)-I-58] | 111

====

Biological target: human 5-HT2A (h5-HT2A) receptor (Homo sapiens)
Construct: expressed in transfected cells; host or cells: HEK293 (HTR2A&Ga15-HEK293, tetracycline-induced)
Experiment: FLIPR assay: human 5-HT2A (agonist mode)
Assay type: cell-based
Settings: @10 μM (head); footnote: curve fitting with activation (%) @ 10 mM with RFU; RFU=Fmax−Fmin
Description: Assessment of the effect of exemplary compounds of Formula I targeting on human 5-HT2A (h5-HT2A) receptor under agonist mode. […] • 1. […] The cell density was counted using cell counter. […] • 1. […] The plate was read for 160 sec with 1 sec interval and the data of agonist mode was obtained. • 1. The normalized fluorescence reading (RFU) was calculated as shown below, wherein Fmax and Fmin stand for maximum and minimum of calcium signal during defined time window: […]
Documented RFU@10 μM across a set of molecules
test-readout: RFU@10 μM (RFU)

molecule | recorded-number
COc1cccc2c1N(C[C@H]1CCCN1C)CC2 [(R)-I-46] | 487
COc1ccc2c(c1)N(C[C@H]1CCCN1C)CC2 [(R)-I-58] | 796
COc1cc2c(cc1OC)N(C[C@H]1CCCN1C)CC2 [(R)-I-34] | 268
[2H]C([2H])([2H])N(CCN1CCc2ccccc21)C([2H])([2H])[2H] | 280
[2H]C([2H])([2H])Oc1ccc2c(c1)N(C([2H])([2H])[C@H]1CCCN1C([2H])([2H])[2H])CC2 [(R)-I-28] | 3744
[2H]C([2H])([2H])N(CCN1CCc2ccc(OC)cc21)C([2H])([2H])[2H] | 303
COc1ccc2c(c1)N(C[C@@H]1CCCN1C)CC2 [(S)-I-58] | 203
[2H]C([2H])([2H])N1CCC[C@@H]1C([2H])([2H])N1CCc2ccc(OC)cc21 [(R)-I-57] | 749
[2H]C([2H])([2H])N1CCC[C@@H]1C([2H])([2H])N1CCc2ccccc21 [(R)-I-1] | 386
COc1ccc2c(c1)N(C[C@H]1CCCN1)CC2 [(R)-I-59] | 801
COc1cccc2c1CCN2C[C@H]1CCCN1C [(R)-I-47] | 174

====

Assay: Plasma stability, human
Assay type: in vitro ADME
Details: 37° C., 60 min, read-out: Remaining Percentage (%), 60 min
test-readout: remaining at 1 h (%)

compound | test-readout | recorded-number
CC(C)[N+](C)(CCOC(=O)C1c2ccccc2Oc2ccccc21)C(C)C [Propantheline, reference compound] | remaining at 1 h | 2.58
[2H]C([2H])([2H])Oc1ccc2c(c1)N(C([2H])([2H])[C@H]1CCCN1C([2H])([2H])[2H])CC2 [(R)-I-28] | remaining at 1 h | 94.2
COc1ccc2c(c1)N(C[C@H]1CCCN1C)CC2 [(R)-I-58] | remaining at 1 h | 98.5
[2H]C([2H])([2H])N1CCC[C@@H]1C([2H])([2H])N1CCc2ccc(OC)cc21 [(R)-I-57] | remaining at 1 h | 113
COc1cccc2c1N(C[C@H]1CCCN1C)CC2 [(R)-I-46] | remaining at 1 h | 93

====

Assay: Plasma stability, human
Assay type: in vitro ADME
Conditions: 37° C., 30 min, read-out: Remaining Percentage (%), 30 min
Each item that follows carries a reported remaining at 0.5 h.
test-readout: remaining at 0.5 h (%)

compound | recorded-number
[2H]C([2H])([2H])N1CCC[C@@H]1C([2H])([2H])N1CCc2ccc(OC)cc21 [(R)-I-57] | 108
[2H]C([2H])([2H])Oc1ccc2c(c1)N(C([2H])([2H])[C@H]1CCCN1C([2H])([2H])[2H])CC2 [(R)-I-28] | 95.1
CC(C)[N+](C)(CCOC(=O)C1c2ccccc2Oc2ccccc21)C(C)C [Propantheline, reference compound] | 29
COc1cccc2c1N(C[C@H]1CCCN1C)CC2 [(R)-I-46] | 104
COc1ccc2c(c1)N(C[C@H]1CCCN1C)CC2 [(R)-I-58] | 108

====

Listed compounds paired with reported remaining at 0.5 h
Assay: Plasma stability, mouse
Type: in vitro ADME
Conditions: 37° C., 30 min, read-out: Remaining Percentage (%), 30 min
test-readout: remaining at 0.5 h

compound | result
[2H]C([2H])([2H])N1CCC[C@@H]1C([2H])([2H])N1CCc2ccc(OC)cc21 [(R)-I-57] | 105%
COc1ccc2c(c1)N(C[C@H]1CCCN1C)CC2 [(R)-I-58] | 97.4%
[2H]C([2H])([2H])Oc1ccc2c(c1)N(C([2H])([2H])[C@H]1CCCN1C([2H])([2H])[2H])CC2 [(R)-I-28] | 99.2%
COc1cccc2c1N(C[C@H]1CCCN1C)CC2 [(R)-I-46] | 103%
CC(C)[N+](C)(CCOC(=O)C1c2ccccc2Oc2ccccc21)C(C)C [Propantheline, reference compound] | 61.6%

====

Target: human 5-HT2A (h5-HT2A) receptor (Homo sapiens, UniProt P28223)
Sequence (P28223 whole entry): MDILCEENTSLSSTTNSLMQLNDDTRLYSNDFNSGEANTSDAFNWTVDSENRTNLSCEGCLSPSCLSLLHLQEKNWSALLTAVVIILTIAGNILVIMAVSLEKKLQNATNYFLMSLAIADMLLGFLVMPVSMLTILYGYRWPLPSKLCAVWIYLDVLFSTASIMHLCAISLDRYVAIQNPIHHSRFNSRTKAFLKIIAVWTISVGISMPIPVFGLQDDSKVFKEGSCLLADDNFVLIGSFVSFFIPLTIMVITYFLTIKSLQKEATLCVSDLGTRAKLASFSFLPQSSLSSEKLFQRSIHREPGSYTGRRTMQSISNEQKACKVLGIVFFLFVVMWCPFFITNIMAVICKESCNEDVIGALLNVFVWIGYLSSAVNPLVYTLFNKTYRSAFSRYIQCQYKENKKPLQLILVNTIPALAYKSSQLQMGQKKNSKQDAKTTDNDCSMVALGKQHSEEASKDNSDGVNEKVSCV
Assay: FLIPR assay: human 5-HT2A (agonist mode)
Settings: FLIPR calcium, agonist mode, HTR2A&Gα15-HEK293 cells; ND: not detected
pEC50: −log10 of the molar value.
Outcome: condition met for pEC50 of at least 6; condition not met for anything lower.

molecule | class
[2H]C([2H])([2H])N1CCC[C@@H]1C([2H])([2H])N1CCc2ccc(OC)cc21 [(R)-I-57] | condition met
COc1ccc2c(c1)N(C[C@H]1CCCN1C)CC2 [(R)-I-58] | condition met
[2H]C([2H])([2H])N1CCC[C@@H]1C([2H])([2H])N1CCc2ccccc21 [(R)-I-1] | condition not met

====

Listed here: items and their measured remaining at 1 h.
Experiment: Plasma stability, rat
Type: in vitro ADME
Settings: 37° C., 60 min, read-out: Remaining Percentage (%), 60 min
Protocol: • a. […] The final concentration of organic solvents was 0.5%. The assay was performed in duplicated. • b. All calculations were carried out using Microsoft Excel.

compound | units-of-measure | remaining at 1 h
CC[C@H](C)C(=O)O[C@H]1C[C@@H](C)C=C2C=C[C@H](C)[C@H](CC[C@@H]3C[C@@H](O)CC(=O)O3)[C@H]21 [Lovastatin, reference compound] | % | 0.33
[2H]C([2H])([2H])Oc1ccc2c(c1)N(C([2H])([2H])[C@H]1CCCN1C([2H])([2H])[2H])CC2 [(R)-I-28] | % | 94.7
COc1ccc2c(c1)N(C[C@H]1CCCN1C)CC2 [(R)-I-58] | % | 110
[2H]C([2H])([2H])N1CCC[C@@H]1C([2H])([2H])N1CCc2ccc(OC)cc21 [(R)-I-57] | % | 89.7
COc1cccc2c1N(C[C@H]1CCCN1C)CC2 [(R)-I-46] | % | 86.7

Every entry's value here was drawn from patent US20260356814A1.
